# SYSTEM NAME: Casein kinase I isoform gamma-3 (Homo sapiens);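 also: reported value is the mean percent inhibition of the kinase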
# CONDITION DESCRIPTION: at 0.1 µM
Would you mind telling me the reported inhibition of each entry?
Field format: number, assumed %, no unit text.

Reported inhibition ( `COc1ccc2ncn(-c3cc(O[C@H](C)c4ccccc4C(F)(F)F)c(C(N)=O)s3)c2c1` ) = -1.87

Reported inhibition ( `c1cnn2ncc(-c3ccnc(NCCCN4CCOCC4)n3)c2c1` ) = 1.77

Reported inhibition ( `COc1ccc(Nc2ncc(-c3ccccc3)o2)cc1OC` ) = -0.65

Reported inhibition ( CC1=C(C(=O)Nc2ccc3[nH]ncc3c2)C(c2ccc(F)cc2)N=C(c2ccc(C(F)(F)F)nc2)N1 (stereo unspecified) ) = 0.89

Reported inhibition ( `N#Cc1cccc(Nc2ncc(-c3ccccc3)o2)c1` ) = 1.94

Reported inhibition ( `CNC(=O)c1ncccc1Nc1nc(Nc2cc3c(cc2OC)CCCN3C(=O)CN(C)C)nc2[nH]ccc12` ) = 2.52

Reported inhibition ( `Cc1ccc(-c2cc3c(NC(=O)C4CC4)ncnc3o2)cc1` ) = 2.01

Reported inhibition ( `COc1cccc(Nc2nccc(-c3cnn4ncccc34)n2)c1` ) = 3.61

Reported inhibition ( `NC(=O)c1ccc2c(-c3ccnc(NCCCO)n3)c(-c3ccc(F)cc3)nn2c1` ) = 8.09

Reported inhibition ( `COc1cc(N2CCN(C(C)C)CC2)ccc1Nc1nc(Nc2cccc3ncccc23)c2cc[nH]c2n1` ) = -2.11

Reported inhibition ( `O=C(O[C@H]1CN[C@H](C#Cc2cc3ncnc(Nc4ccc5c(ccn5Cc5cc(F)ccc5F)c4)c3s2)C1)N1CCOCC1` ) = 2.96
